# Test system: HCMV
# testMethodNotes: Anti-HCMV cytopathogenicity test
# Format: cell-based, human cytomegalovirus
# appliedConditions: Human betaherpesvirus 5, 144 h; HCMV-infected NHDF cells, M.O.I. 0.001-0.002, 6 days; 50% inhibition of cytopathic effect
measurementName: EC50 (nM)
Quick note: give the figure in nM, leave out the unit.

{"columns": ["molecule", "assayValue"],
 "data": [
  ["COc1ccc(C(F)(F)F)cc1N1C(N2CCN3c4ccc(F)cc4CC3C2)=Nc2c(F)cccc2C1CC(=O)O (single isomer, unassigned)", 20],
  ["COc1ccc(C(F)(F)F)cc1N1C(N2CCn3c(cc4c(C)cccc43)C2)=Nc2c(F)cccc2C1CC(=O)O (single isomer, unassigned)", 90],
  ["COc1ccc(C(F)(F)F)cc1N1C(N2CCn3c(cc4c(F)cccc43)C2)=Nc2c(F)cccc2C1CC(=O)O (single isomer, unassigned)", 120]
]}

API: the following record is the query input.
Qu. Output reported EC50 of the molecule COc1ccc(C(F)(F)F)cc1N1C(N2CCN3c4cccc(C)c4CC3C2)=Nc2c(F)cccc2C1CC(=O)O (stereo not shown) on HCMV.
Ans. 40

###

Listing: CC50 at 6 days of selected molecules
# testMethodNotes: Cytostatic effect on NHDF cells in the anti-HCMV cytopathogenicity test
# Assay type: cell-based
# appliedConditions: NHDF cells (human prepuce fibroblasts), 6 days incubation, visual assessment, concentration at which no visible cytostatic effects are evident
Quick note: give the figure in µM, leave out the unit.

Past entries and their recorded results:
{"columns": ["molecule", "assayValue"],
 "data": [
  ["COc1ccc(C(F)(F)F)cc1N1C(N2CCN3c4cccc(C)c4CC3C2)=Nc2c(F)cccc2C1CC(=O)O (stereo not shown) [Example 9]", 24],
  ["COc1ccc(C(F)(F)F)cc1N1C(N2CCn3c(cc4c(F)cccc43)C2)=Nc2c(F)cccc2C1CC(=O)O (single isomer, unassigned) [Example 4]", 14],
  ["COc1ccc(C(F)(F)F)cc1N1C(N2CCn3c(cc4c(C)cccc43)C2)=Nc2c(F)cccc2C1CC(=O)O (single isomer, unassigned) [Example 2]", 21]
]}

API: the following record is the query input.
Qu. Give reported CC50 at 6 days value for COc1ccc(C(F)(F)F)cc1N1C(N2CCN3c4ccc(F)cc4CC3C2)=Nc2c(F)cccc2C1CC(=O)O (single isomer, unassigned) [Example 16]
Ans. 21
